- procedure-details: basal MM1S mitochondrial membrane potential changes, profiling panel, cell-based, JC-1 fluorescence, 24 h, 100 nL compound (AID 1170); further: test concentration not given here
- conditions-used: higher = more signal
observed-property: z-score

1. COC(=O)[C@]1(CCC(=O)OC(C)(C)C)N=C(c2ccc(OCCCO)cc2)O[C@@H]1c1ccccc1CN=[N+]=[N-] :: -2.7
2. O=C(N1CCCCC1)[C@]1(Cc2ccccc2)N=C(c2ccc(OCCCO)cc2)O[C@@H]1c1ccccc1 :: -2.03
3. COc1cccc(-c2cccc(=O)o2)c1 :: 0.0881
4. COc1ccc(CCNC(=O)[C@@]2(C)c3ccccc3C(=O)N(C(C)C)[C@H]2c2ccc(CO)cc2)cc1 :: -0.03
5. O=C1C2C=CC(C(O)c3cccc4ccccc34)N(Nc3ccccc3F)C2C(=O)N1c1ccccc1 (stereo not given) :: -1.68
6. C=C(CCCC)/C(=C/C[C@H](OC(C)=O)c1ccccc1OCCO)c1cc(C(=O)OC)ccc1OC :: 0.0208
7. COCCOC(=O)N1C(=O)[C@@]2(c3cc(C#CC4(O)CCCCCC4)ccc31)[C@H](c1ccccc1OCCO)N1[C@H](c3ccccc3)[C@H](c3ccccc3)OC(=O)[C@H]1[C@@H]2C(=O)N1CCN(c2ncccn2)CC1 :: -1.05
8. COCCCNC(=O)[C@@]1(C)c2ccccc2C(=O)N(C(C)C)[C@H]1c1ccc(CO)cc1 :: -0.441
9. C=C(C)[C@@H]1CC=C(C(O)C2C=CC3C(=O)N(C)C(=O)C3N2Nc2ccccc2)CC1 (stereo not given in full) :: -0.0333
10. C=CCC(OC(C)=O)[C@@H]1[C@@H](N(Cc2cc3ccccc3o2)C(=O)c2cccc3ccccc23)c2cc(OCCCO)ccc2N1C(=O)c1ccc(-c2ccccc2)cc1 (stereo not given in full) :: 0.955

----------
- procedure-details: PSAC antagonists in infected red cells, primary screen, cell-based, P. falciparum Indochina, OD700, 2 h (AID 1155);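 further: lysis reports solute entry through the parasite surface anion channel PSAC; channel blockers reduce lysis of infected cells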
- conditions-used: P. falciparum Indochina infected erythrocytes, osmotic lysis OD700; higher = more signal, called active from +8 up or from −8 down
compounds and their reported z-score
observed-property: z-score

1. [N-]=[N+]=Nc1ccccc1[C@@H]1OC(c2ccc(OCCCO)cc2)=N[C@]1(CCS(=O)(=O)c1ccccc1)C(N)=O :: 26.1
2. C=C(/C(=C/C[C@H](OC(C)=O)c1ccccc1OCCO)c1cnc2ccccc2c1)C(C)C :: 1.55
3. C=C(CCCC)/C(=C/C[C@@H](OC(C)=O)c1ccc(OCCO)cc1)c1cnc2ccccc2c1 :: 6.92
4. O=C1c2ccccc2[C@](Cc2ccccc2I)(C(=O)NCCN2CCOCC2)[C@H](c2ccc(CO)cc2)N1C1CCCCC1 :: 0.814
5. COC(=O)[C@@]1(Cc2ccc(OC)cc2)[C@H]2c3cc(C(=O)N(C)C)n(Cc4ccc(S(C)(=O)=O)cc4)c3C[C@H]2CN1C(=O)c1ccccc1 :: 0.451
6. C=C[C@H](C)[C@@H](OC(=O)Nc1ccc(OC)cc1)c1ccc(O)c2ccccc12 :: 0.265
7. COc1cc2c(cc1O)C(c1cccs1)N(C)CC2 (configuration not stated) :: 1.17
8. C=CC1(C(=O)OC)CC=C(C(=O)OC)CC1 (configuration not stated) :: -0.87
9. COc1ccccc1CN1C(=O)c2ccccc2[C@@H](C(=O)NC2CC2)[C@@H]1c1ccc(CO)cc1 :: 0.873
10. CC(C)NC(=O)[C@@H]1c2ccccc2C(=O)N(C2Cc3ccccc3C2)[C@H]1c1ccc(CO)cc1 :: 0.119
11. O=C1c2ccccc2[C@](Cc2ccccc2I)(C(=O)NCC(F)(F)F)[C@H](c2ccc(CO)cc2)N1Cc1ccccc1Cl :: 0.208
12. C=C[C@@H](COC(=O)OC(C)(C)C)N(Cc1ccc(OC)cc1)S(=O)(=O)c1ccc(Br)cc1 :: -0.0352
13. COc1cc2c(cc1O)C(C1CC1)N(Cc1sc3ccccc3c1Cl)CC2 (configuration not stated) :: 3.41
14. COC(=O)C(CC#Cc1ccc2c(c1)[C@]1(C(=O)N2)[C@H](c2ccc(OCCO)cc2)N2[C@H](c3ccccc3)[C@H](c3ccccc3)OC(=O)[C@H]2[C@@H]1C(=O)N1CCc2cc(OC)c(OC)cc2C1)C(=O)OC :: 1.89
15. CCOC(=O)C[C@H]1[C@H](OC(=O)c2ccc(-c3ccccc3)cc2)[C@@H](NC(=O)Cc2ccc(OC)cc2)c2cc(OCCCO)ccc2N1C(=O)c1ccccc1 :: -0.259
16. C=CCOC(=O)[C@H]1[C@@H]2C(=O)O[C@@H](c3ccccc3)[C@@H](c3ccccc3)N2[C@@H](c2ccc(OCCOC(=O)[C@H]3C[C@H]4C(=O)N[C@@H](CCCCNC(C)=O)C(=O)N4[C@H]3c3cccc(OCCO)c3)cc2)[C@]12C(=O)Nc1ccccc12 :: 1.52
17. COCCOC(=O)N1C(=O)[C@@]2(c3ccccc31)[C@H](C(=O)N1CCc3cc(OC)c(OC)cc3C1)[C@H]1C(=O)O[C@H](c3ccccc3)[C@H](c3ccccc3)N1[C@@H]2c1ccc(OCCO)cc1 :: 1.85
18. CN(C)CCCCCCNC(=O)[C@H]1C[C@H]2C(=O)N3CCC[C@H]3C(=O)N2[C@H]1c1ccc(O)cc1 :: 0.326
19. CN(C)C(=O)[C@@]1(CCS(=O)(=O)c2ccccc2)COC(c2ccc(OCCCO)cc2)=N1 :: 8.3
20. O=C1C[C@]2(c3ccc([N+](=O)[O-])cc3)C(=O)N(CC(F)(F)F)c3cc(CO)ccc3[C@H]2N1C1CCCCC1 :: 0.345
21. C=CCOC(=O)[C@H]1[C@@H]2C(=O)O[C@@H](c3ccccc3)[C@@H](c3ccccc3)N2[C@@H](c2ccc(OCCOC(=O)[C@@H]3C[C@@H]4C(=O)N[C@@H](CC(C)C)C(=O)N4[C@@H]3c3ccc(O)cc3)cc2)[C@]12C(=O)Nc1ccccc12 :: 1.3
22. O=C(NC1CC1)[C@@H]1c2ccccc2C(=O)N(Cc2ccccc2Cl)[C@H]1c1ccc(CO)cc1 :: 0.652

----------
- procedure-details: modulators of HCV replicon luciferase signal, primary screen, HCV replication inhibitor project, Huh7 cells, luciferase reporter (AID 1109);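 further: huh7 hepatoma cells harbouring a luciferase neomycin HCV replicon reporter; luciferase luminescence as measure of HCV replicon replication; test concentration not given here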
- conditions-used: 48 h, higher = more signal
observed-property: z-score

1) C=CCNC(=O)[C@@H]1[C@H]2C(=O)O[C@H](c3ccccc3)[C@H](c3ccccc3)N2[C@H](c2ccc(O)cc2)[C@@]12C(=O)N(C(=O)OCCOC)c1ccc(C#CCNC(N)=O)cc12 :: -0.578
2) C=C(C)[C@@H]1CC=C(C(O)C2C=CC3C(=O)N(C)C(=O)C3N2Nc2ccccc2)CC1 (some centres not stated) :: -0.626
3) Cc1nc2cc(Br)ccc2c(=O)o1 :: -0.569
4) O=C1O[C@@H](c2ccccc2)[C@@H](c2ccccc2)N2[C@@H](c3ccccc3OCCO)[C@]3(C(=O)Nc4ccc(C#CC5=CCCCC5)cc43)[C@@H](C(=O)N3CCCCCCC3)[C@H]12 :: -3.29
5) CCCC=C(CCC)[C@@H](NC(=O)c1cccs1)c1ccc(C(F)(F)F)cc1 :: -0.668
6) COc1ccc(C#Cc2ccc3c(c2)[C@]2(C(=O)N3)[C@H](c3ccccc3OCCO)N3[C@H](c4ccccc4)[C@H](c4ccccc4)OC(=O)[C@H]3[C@@H]2C(=O)Nc2nc3ccccc3s2)cc1 :: -2.83
7) COCCCNC(=O)[C@]1(CCC(=O)OC(C)(C)C)N=C(c2ccc(OCCCO)cc2)O[C@@H]1c1ccccc1CN=[N+]=[N-] :: -1.74

----------
molecules and their reported z-score
- procedure-details: fission yeast growth modulation, primary screen, strain 972, OD600, 24 h, no modulator (AID 1090);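 further: basal condition with compound alone and no growth modifier present; test concentration not given here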
- conditions-used: S. pombe 972 growth, higher = more signal, called active from +8 up or from −8 down
observed-property: z-score

1. COC(=O)C(CC#Cc1ccc2c(c1)[C@]1(C(=O)N2)[C@H](C(=O)Nc2nc3ccccc3s2)[C@H]2C(=O)O[C@H](c3ccccc3)[C@H](c3ccccc3)N2[C@@H]1c1ccccc1OCCO)C(=O)OC :: 1.12
2. CCOC(=O)C[C@H]1[C@H](OC(=O)c2ccc(C(=O)c3ccccc3)cc2)[C@@H](NC(=O)c2ccc3ccccc3c2)c2cc(OCCCO)ccc2N1C(=O)Cc1ccc(OC)cc1 :: 0.713
3. CC(C)OC(=O)C=C1C[C@@H](c2ccccn2)O[C@@H](c2ccccn2)O1 :: 0.228
4. O=C1OCCC/C=C\[C@H]2OC34C=CCN(Cc5ccccc5)C(=O)[C@H]3N(CCCO)C(=O)[C@@H]4C12 (some centres not stated) :: -0.0304
5. COC(=O)C(CC#Cc1ccc2c(c1)[C@]1(C(=O)N2)[C@H](c2ccc(OCCO)cc2)N2[C@H](c3ccccc3)[C@H](c3ccccc3)OC(=O)[C@H]2[C@@H]1C(=O)Nc1nc2ccccc2s1)C(=O)OC :: 2.22
6. COc1ccc(CCNC(=O)[C@@]2(C)c3ccccc3C(=O)N(C(C)C)[C@H]2c2ccc(CO)cc2)cc1 :: -0.366
7. COc1cc2c(cc1OC)CN(C(=O)[C@@H]1[C@H]3C(=O)O[C@H](c4ccccc4)[C@H](c4ccccc4)N3[C@H](c3ccc(O)cc3)[C@@]13C(=O)Nc1ccccc13)CC2 :: -0.0755

Where do the numbers come from? From PubChem BioAssay.
